Data credit: patent US6187585A

# System: EGFR mRNA
# method.summary: EGFR mRNA inhibition, Northern blot, A549 human lung carcinoma cells
# Format: cell-based
# condition.context: 300 nM oligonucleotide, 15 μg/ml LIPOFECTIN, relative to untreated control, normalized to G3PDH
Strand notation (5' to 3'): a small letter for the sugar, then the base; units joined by * are phosphorothioate-linked, units joined directly phosphodiester-linked; [ ] holds rarer units or linkages, { } end groups; capitals alone tell only the bases. d = 2'-deoxy (DNA)
assay.metric: % Inhibition of EGFR mRNA (10 kb band)

>>> result_value("ISIS 10563: CCCCAGCAGCTCCCATTGGG; phosphorothioate deoxyoligonucleotide; coding region, Ullrich 769-788 (antisense dC*dC*dC*dC*dA*dG*dC*dA*dG*dC*dT*dC*dC*dC*dA*dT*dT*dG*dG*dG)")
"95%"
>>> result_value("ISIS 10561: TGTCGGCCCCACAGGCTCGG; phosphorothioate 2'-deoxy; coding region, Ullrich 1110-1129 (antisense dT*dG*dT*dC*dG*dG*dC*dC*dC*dC*dA*dC*dA*dG*dG*dC*dT*dC*dG*dG)")
"greater than 50%"
>>> result_value("ISIS 12876: CCCCAGCAGCTCCCATTGGG; 5-methyl C; phosphorothioate; coding region, Ullrich 769-788 (all C 5-methyl, all phosphorothioate, sugars by position not given here)")
"97%"
>>> result_value("ISIS 10565: CTCGGCTGACATTCCGGCAA; phosphorothioate 2'-deoxy; coding region, Ullrich 1761-1780 (antisense dC*dT*dC*dG*dG*dC*dT*dG*dA*dC*dA*dT*dT*dC*dC*dG*dG*dC*dA*dA)")
"43%"
>>> result_value("ISIS 12877: CUCGGCTGACATTCCGGCAA; 2'-fluoro; phosphorothioate (all phosphorothioate, sugars by position and methylation of C not given here; 2'-fluoro modification, further chemistry not fully specified)")
"93%"
>>> result_value("ISIS 12875: CCCCAGCAGCTCCCAUUGGG; 2'-fluoro; phosphorothioate; coding region, Ullrich 769-788 (all phosphorothioate, sugars by position and methylation of C not given here; 2'-fluoro modification, further chemistry not fully specified)")
"77%"
>>> result_value("ISIS 12878: GAGGCGTTCTCCTUUCUCCA; 2'-O-propyl; phosphorothioate; coding region, Ullrich 2966-2985 (all phosphorothioate, sugars by position and methylation of C not given here; 2'-O-propyl modification, further chemistry not fully specified)")
"greater than 50%"

###

# System: EGFR mRNA
# method.summary: EGFR mRNA inhibition, Northern blot, SKOV3 human ovarian carcinoma cells
# Assay type: cell-based
# condition.context: 300 nM oligonucleotide, 15 μg/ml LIPOFECTIN, relative to untreated control, normalized to β-actin
Strand notation (5' to 3'): a small letter for the sugar, then the base; units joined by * are phosphorothioate-linked, units joined directly phosphodiester-linked; [ ] holds rarer units or linkages, { } end groups; capitals alone tell only the bases. d = 2'-deoxy (DNA)
Label 0 (no) if % Inhibition of EGFR mRNA (10 kb band) falls below 40%; label 1 (yes) in every other case.

>>> group("ISIS 12875: CCCCAGCAGCTCCCAUUGGG; 2'-fluoro; phosphorothioate; coding region, Ullrich 769-788 (all phosphorothioate, sugars by position and methylation of C not given here; 2'-fluoro modification, further chemistry not fully specified)")
"1 (yes)"
>>> group("ISIS 10563: CCCCAGCAGCTCCCATTGGG; phosphorothioate deoxyoligonucleotide; coding region, Ullrich 769-788 (antisense dC*dC*dC*dC*dA*dG*dC*dA*dG*dC*dT*dC*dC*dC*dA*dT*dT*dG*dG*dG)")
"1 (yes)"
>>> group("ISIS 12878: GAGGCGTTCTCCTUUCUCCA; 2'-O-propyl; phosphorothioate; coding region, Ullrich 2966-2985 (all phosphorothioate, sugars by position and methylation of C not given here; 2'-O-propyl modification, further chemistry not fully specified)")
"0 (no)"
>>> group("ISIS 10565: CTCGGCTGACATTCCGGCAA; phosphorothioate 2'-deoxy; coding region, Ullrich 1761-1780 (antisense dC*dT*dC*dG*dG*dC*dT*dG*dA*dC*dA*dT*dT*dC*dC*dG*dG*dC*dA*dA)")
"0 (no)"
>>> group("ISIS 12877: CUCGGCTGACATTCCGGCAA; 2'-fluoro; phosphorothioate (all phosphorothioate, sugars by position and methylation of C not given here; 2'-fluoro modification, further chemistry not fully specified)")
"1 (yes)"
>>> group("ISIS 10561: TGTCGGCCCCACAGGCTCGG; phosphorothioate 2'-deoxy; coding region, Ullrich 1110-1129 (antisense dT*dG*dT*dC*dG*dG*dC*dC*dC*dC*dA*dC*dA*dG*dG*dC*dT*dC*dG*dG)")
"1 (yes)"
>>> group("ISIS 12876: CCCCAGCAGCTCCCATTGGG; 5-methyl C; phosphorothioate; coding region, Ullrich 769-788 (all C 5-methyl, all phosphorothioate, sugars by position not given here)")
"1 (yes)"

###

Here, each record is paired with measured reduction of EGFR protein production / EGFR synthesis data.
# System: EGFR protein
# method.summary: EGFR protein synthesis, metabolic labeling and immunoprecipitation, SKOV3 cells
# Type: cell-based, human
# condition.context: 35S-methionine labeling, compared to untreated cells
Strand notation (5' to 3'): a small letter for the sugar, then the base; units joined by * are phosphorothioate-linked, units joined directly phosphodiester-linked; [ ] holds rarer units or linkages, { } end groups; capitals alone tell only the bases. d = 2'-deoxy (DNA)
assay.metric: reduction of EGFR protein production / EGFR synthesis

>>> result_value("ISIS 12876: CCCCAGCAGCTCCCATTGGG; 5-methyl C; phosphorothioate; coding region, Ullrich 769-788 (all C 5-methyl, all phosphorothioate, sugars by position not given here)")
"90-98%"
>>> result_value("ISIS 12139: GAGTTCGCGTCCTTTCTCCA; scrambled control; phosphorothioate (all phosphorothioate, sugars by position and methylation of C not given here) [reference compound]")
"10%"
>>> result_value("ISIS 10563: CCCCAGCAGCTCCCATTGGG; phosphorothioate deoxyoligonucleotide; coding region, Ullrich 769-788 (antisense dC*dC*dC*dC*dA*dG*dC*dA*dG*dC*dT*dC*dC*dC*dA*dT*dT*dG*dG*dG)")
"90-98%"
>>> result_value("ISIS 12877: CUCGGCTGACATTCCGGCAA; 2'-fluoro; phosphorothioate (all phosphorothioate, sugars by position and methylation of C not given here; 2'-fluoro modification, further chemistry not fully specified)")
"90-98%"
